IC50 values by entry
study system: FAK (Homo sapiens)
Construct: endogenous in cells; host or cells: U87MG glioblastoma cells (ATCC HTB-14)
Sequence (Q05397 whole entry): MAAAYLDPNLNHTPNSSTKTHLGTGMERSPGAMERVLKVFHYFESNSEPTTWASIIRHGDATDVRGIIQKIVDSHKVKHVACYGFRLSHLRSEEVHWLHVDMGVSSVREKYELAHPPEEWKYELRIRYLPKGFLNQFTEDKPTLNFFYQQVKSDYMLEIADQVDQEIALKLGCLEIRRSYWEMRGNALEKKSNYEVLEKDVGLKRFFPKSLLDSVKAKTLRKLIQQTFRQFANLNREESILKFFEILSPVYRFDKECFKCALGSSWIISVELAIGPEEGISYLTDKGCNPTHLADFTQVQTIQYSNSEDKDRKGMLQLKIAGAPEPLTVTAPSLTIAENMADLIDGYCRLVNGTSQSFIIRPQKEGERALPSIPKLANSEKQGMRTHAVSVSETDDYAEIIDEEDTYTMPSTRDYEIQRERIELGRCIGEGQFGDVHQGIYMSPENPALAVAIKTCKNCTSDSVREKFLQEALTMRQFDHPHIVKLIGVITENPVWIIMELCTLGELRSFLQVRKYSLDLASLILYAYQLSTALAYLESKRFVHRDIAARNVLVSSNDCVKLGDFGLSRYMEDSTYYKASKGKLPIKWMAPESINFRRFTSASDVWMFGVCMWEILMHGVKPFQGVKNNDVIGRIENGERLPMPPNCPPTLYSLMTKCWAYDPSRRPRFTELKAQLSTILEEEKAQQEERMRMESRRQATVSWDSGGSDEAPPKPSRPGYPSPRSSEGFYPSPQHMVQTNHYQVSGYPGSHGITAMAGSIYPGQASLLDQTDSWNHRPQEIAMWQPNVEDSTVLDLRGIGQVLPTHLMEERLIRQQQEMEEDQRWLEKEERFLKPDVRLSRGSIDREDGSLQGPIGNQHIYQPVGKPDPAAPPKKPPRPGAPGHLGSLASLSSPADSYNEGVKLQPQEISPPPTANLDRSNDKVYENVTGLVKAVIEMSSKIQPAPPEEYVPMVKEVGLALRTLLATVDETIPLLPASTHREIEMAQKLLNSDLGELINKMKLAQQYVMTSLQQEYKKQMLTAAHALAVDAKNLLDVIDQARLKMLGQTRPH
assay procedure: Cell-based capture ELISA for inhibition of FAK autophosphorylation [pY397] in U87MG cells
cond: 50% (v/v) human plasma, mean IC50, read-out: FAK Activity Mechanistic (U87MG) HP

Sample records with IC50:
molecule	IC50
CCOP1(=O)Cc2ccc(c(OC)c2)Nc2ncc(C(F)(F)F)c(n2)Nc2ccc(nc2C(=O)NC)-c2cnn(c2)CC(F)(F)CO1 (single isomer, unassigned) [Example 59B]	400 to 4000 nM
CCNC(=O)c1cc2ccc1Nc1nc(ncc1C(F)(F)F)Nc1ccc(cc1OC)CP(=O)(OCC)OCCCn1cc-2cn1 (racemic) [Example 9]	< 400 nM
CCP1(=O)Cc2ccc(c(OC)c2)Nc2ncc(C(F)(F)F)c(n2)Nc2ccc(nc2C(=O)NC)-c2cnn(c2)CCCO1 (single isomer, unassigned) [Example 67A]	400 to 4000 nM
CCOP1(=O)Cc2ccc(c(OC)c2)Nc2ncc(C(F)(F)F)c(n2)Nc2ccc(nc2C(=O)NC)-c2cn(nc2Cl)CCCO1 (racemic) [Example 49]	< 400 nM
CCOP1(=O)Cc2ccc(c(OC)c2)Nc2ncc(C(F)(F)F)c(n2)Nc2ccc(nc2C(=O)NC)-c2cn(nc2Cl)CCCO1 (single isomer, unassigned) [Example 49A]	> 4000 nM

INPUT: Find the recorded IC50 belonging to CCOP1(=O)Cc2ccc(c(Cl)c2)Nc2ncc(C(F)(F)F)c(n2)Nc2ccc(nc2C(=O)NC)-c2cnn(c2)CC2(COC2)CO1 (single isomer, unassigned) [Example 58A] and report it.
OUTPUT: 400 to 4000 nM

INPUT: Find the recorded IC50 belonging to CCOP1(=O)Cc2ccc(c(OC)c2)Nc2ncc(C(F)(F)F)c(n2)Nc2ccc(nc2C(=O)NC)-c2cnn(c2)CC2(CC2)CO1 (racemic) [Example 63] and report it.
OUTPUT: < 400 nM
